Field: pEC50. Provide a value for each of the compounds that follow.
- Measured On: NPR-B (Homo sapiens)
- Construct: a functional assay using endogenously NPR-B expressing GTM-3 cells; endogenous in cells; host or cells: GTM-3 (human glaucoma trabecular meshwork cells)
- Sequence (P20594 23-1047): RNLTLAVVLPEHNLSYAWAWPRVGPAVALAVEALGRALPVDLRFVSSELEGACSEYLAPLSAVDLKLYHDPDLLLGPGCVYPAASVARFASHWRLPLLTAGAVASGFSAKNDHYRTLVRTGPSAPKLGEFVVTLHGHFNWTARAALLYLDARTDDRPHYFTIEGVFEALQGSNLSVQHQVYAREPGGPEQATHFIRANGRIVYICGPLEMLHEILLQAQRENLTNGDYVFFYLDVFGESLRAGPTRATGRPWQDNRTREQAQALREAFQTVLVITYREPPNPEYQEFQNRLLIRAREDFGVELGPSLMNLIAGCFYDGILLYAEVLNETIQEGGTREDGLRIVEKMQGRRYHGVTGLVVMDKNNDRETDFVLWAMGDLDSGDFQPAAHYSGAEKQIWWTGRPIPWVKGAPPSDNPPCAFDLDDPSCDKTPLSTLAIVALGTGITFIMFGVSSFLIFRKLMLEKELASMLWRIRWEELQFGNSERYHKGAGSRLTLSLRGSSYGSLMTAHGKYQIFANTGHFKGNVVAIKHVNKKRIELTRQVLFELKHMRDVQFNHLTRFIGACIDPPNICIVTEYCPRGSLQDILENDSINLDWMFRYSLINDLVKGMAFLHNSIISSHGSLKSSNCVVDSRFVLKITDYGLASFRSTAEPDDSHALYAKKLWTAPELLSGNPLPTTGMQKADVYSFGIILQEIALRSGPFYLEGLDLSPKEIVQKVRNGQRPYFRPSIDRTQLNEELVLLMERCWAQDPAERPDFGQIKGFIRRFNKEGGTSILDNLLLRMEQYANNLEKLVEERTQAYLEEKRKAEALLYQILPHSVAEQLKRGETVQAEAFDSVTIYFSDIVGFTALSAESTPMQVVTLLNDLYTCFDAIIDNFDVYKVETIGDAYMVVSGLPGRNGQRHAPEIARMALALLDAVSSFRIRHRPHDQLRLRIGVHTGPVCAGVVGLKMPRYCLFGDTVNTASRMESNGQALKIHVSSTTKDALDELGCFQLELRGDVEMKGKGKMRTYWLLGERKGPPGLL
- Test Summary: NPR-B induced production of cyclic GMP in human glaucoma trabecular meshwork cells (GTM-3)
- Type: cell-based
- Assay Context: group by EC50 and Emax (CNP = 100%); Table 4; read-out: Activity (group), NPR-B activation assayed with GTM-3 cells
pEC50: −log10 of the molar value. Numbered stars: 1 amine (or outer) side, 2 acyl side, 3 side chain; on linkers, the order of the positions; unused ones are H or OH. Square brackets hold non-standard residues; d marks the D form. Peptide text beside a SMILES is read from it. * marks the point of attachment. X2 = O=C([C@H]1CCCN([*:1])C1)[*:2]; Hyp = O=C(O)[C@@H]1C[C@@H](O)CN1; NHcycloheptyl = C1CCCC(N*)CC1; NMeL = CN[C@@H](CC(C)C)C(=O)O; Octanoyl = CCCCCCCC(=O)*

response.value for CCCCc1cnc(Nc2ccc(C(=O)N[C@@H](Cc3ccccc3)C(=O)N[C@H](CC(C)C)C(=O)N[C@@H](CC(C)C)C(=O)N3C[C@H](O)C[C@H]3C(=O)N(C)[C@@H](CC(C)C)C(=O)N[C@@H](CC(=O)O)C(=O)N[C@@H](CCCNC(=N)N)C(=O)N[C@H](C(N)=O)[C@@H](C)CC)cc2)s1 [JAL-1380] (HELM PEPTIDE1{[CCCCc1cnc(Nc2ccc(C(=O)[*:2])cc2)s1].F.[dL].L.[Hyp].[meL].D.R.I.[am]}$$$$V2.0) (field: pEC50) = > 6.00

Briefly, pEC50 measured for CCCCCCCC(=O)N1CCC[C@H](C(=O)N[C@@H](Cc2ccccc2)C(=O)N[C@H](CC(C)C)C(=O)N[C@@H](CC(C)C)C(=O)N2C[C@H](O)C[C@H]2C(=O)N(C)[C@@H](CC(C)C)C(=O)N[C@@H](CC(=O)O)C(=O)N[C@@H](CCCNC(=N)N)C(=O)NC2CCCCCC2)C1 [JAL-1680, Occ-Sni-Phe-leu-Leu-Hyp-Nml-Asp-Arg-Che] (Octanoyl-[X2]F[dL]L[Hyp][NMeL]DR-NHcycloheptyl) : > 6.00

// field: pEC50; key: CCCCCCCC(=O)N[C@H](C)C(=O)N[C@@H](Cc1ccccc1)C(=O)N[C@H](CCCN)C(=O)N[C@@H](CC(C)C)C(=O)N1C[C@H](O)C[C@H]1C(=O)N(C)[C@@H](CC(C)C)C(=O)N[C@@H](CC(=O)O)C(=O)N[C@@H](CCCNC(=N)N)C(=O)N[C@H](C(N)=O)[C@@H](C)CC [JAL-1061] (HELM PEPTIDE1{[CCCCCCCC(=O)[*:2]].[dA].F.[NCCC[C@@H](N[*:1])C(=O)[*:2]].L.[Hyp].[meL].D.R.I.[am]}$$$$V2.0) ; value = > 6.00

* * *

- Measured On: NPR-B (Homo sapiens)
- Construct: a functional assay using endogenously NPR-B expressing GTM-3 cells; endogenous in cells; host or cells: GTM-3 (human glaucoma trabecular meshwork cells)
- Test Summary: NPR-B induced production of cyclic GMP in human glaucoma trabecular meshwork cells (GTM-3)
- Type: cell-based
- Assay Context: group by EC50 and Emax (CNP = 100%); Table 4; read-out: Activity (group), NPR-B activation assayed with GTM-3 cells
pEC50: −log10 of the molar value. Numbered stars: 1 amine (or outer) side, 2 acyl side, 3 side chain; on linkers, the order of the positions; unused ones are H or OH. Square brackets hold non-standard residues; d marks the D form. Peptide text beside a SMILES is read from it. * marks the point of attachment. X5 = NCCC(=O)N[C@@H]1C[C@@H](C(=O)[*:2])N([*:1])C1; X2 = O=C([C@H]1CCCN([*:1])C1)[*:2]; NMeL = CN[C@@H](CC(C)C)C(=O)O; Octanoyl = CCCCCCCC(=O)*
Would you mind telling me the reported pEC50 of each entry?

Lookup result for CCCCCCCC(=O)N1CCC[C@H](C(=O)N[C@@H](Cc2ccccc2)C(=O)N[C@H](CC(C)C)C(=O)N[C@@H](CC(C)C)C(=O)N2C[C@H](NC(=O)CCN)C[C@H]2C(=O)N(C)[C@@H](CC(C)C)C(=O)N[C@@H](CC(=O)O)C(=O)N[C@@H](CCCNC(=N)N)C(=O)N[C@H](C(N)=O)[C@@H](C)CC)C1 [JAL-1323] (Octanoyl-[X2]F[dL]L[X5][NMeL]DRI-NH2) ; measured pEC50: > 6.00

Note to self: pEC50 recorded for CCCCCCCC(=O)N[C@H](C)C(=O)N[C@@H](Cc1ccccc1)C(=O)N[C@H](CC(C)C)C(=O)N[C@@H](CC(C)C)C(=O)N1C[C@H](O)C[C@H]1C(=O)N(C)[C@@H](CC(C)C)C(=O)N[C@@H](CC(=O)O)C(=O)N[C@@H](CCCNC(=N)N)C(=O)NC(C)(CC(C)C)C(N)=O (stereo partly drawn) [JAL-1414] (HELM PEPTIDE1{[CCCCCCCC(=O)[*:2]].[dA].F.[dL].L.[Hyp].[meL].D.R.[CC(C)CC(C)(N[*:1])C(=O)[*:2]].[am]}$$$$V2.0) was > 6.00
